- run_description: in vitro
- Parameters: species or system CCD841, HEK293
- condition: human, hb2 cells, read-out: HB-2 Cells Viability (%)
Parameter viability at 48 h, 10 µM: see the listing below.
API: value field is a number in %; no unit string.

Examples with their reported viability at 48 h, 10 µM follow.
> print(dat)
                                   molecule  units  data.value
1  Cc1ccc(C(C)NC(=O)CCl)cc1C (centres unmarked)      %        80.2
2    N#Cc1c2c(n(-c3ccccc3)c1NC(=O)CCl)CCCC2      %          18
3  O=C(CCl)N1CCCc2cc(S(=O)(=O)N3CCCC3)ccc21      %         5.4
4                CN(CC(=O)N1CCOCC1)C(=O)CCl      %         101
5  O=C(CCl)N(C1CCCCC1)C1CCS(=O)(=O)C1 (centres unmarked)      %        49.7

Memo: O=C(CCl)Nc1cc2c(cc1Cl)OCCO2 , reported viability at 48 h, 10 µM: 38.7

So for CC12CCC(CC1=NNC(=O)CCl)C2(C)C (centres unmarked) , the logged viability at 48 h, 10 µM turned out to be 25.9

Sample C=CC(=O)NCC1CC12CCOCC2 (centres unmarked) ; viability at 48 h, 10 µM observed: 97

For C=CC(=O)N1CCCCC1c1cnn(C)c1 (centres unmarked) the molecule record lists viability at 48 h, 10 µM as 95.7

Data point: Cc1ccc([N+](=O)[O-])cc1NC(=O)CCl ; viability at 48 h, 10 µM = 1.1

Consider O=C(CCl)NC(=O)c1ccc[nH]1 . Its measured viability at 48 h, 10 µM is 96.2

Reference source: paper PMC6556873
